tested-on: D(1A) dopamine receptor (Homo sapiens)
assay-protocol: Allosteric Agonists of the Human D1 Dopamine Receptor: qHTS; also: 0% is about no effect
condition-description: HEK293 T-REx D1 cells, calcium flux, agonist mode; at 2 µM; hits give high values
Hit rate of the full screen: of about 360,000 compounds, about 3,700 (1%) were called active. For the sample, actives were picked, then their nearest neighbours and some compounds at random.
Readings of activation for the listed compounds
Output spec: scalar in %, unitless text.

INSERT INTO measurements (compound, measurement) VALUES
  ('Cc1ccc2[nH]cc(CCNC(=O)C3CCCCC3)c2c1', 5.96),
  ('CCN(CC)c1ccc(NC(=O)CN2CCN(CC(=O)Nc3ccc(Cl)cc3)CC2)cc1', 2.48),
  ('Oc1ccc(Cl)cc1C1C=C(c2ccc3c(c2)OCO3)NC(c2ccc(F)c(Br)c2)N1 (stereo not given)', 16.4),
  ('CCOC(=O)c1ccc(CSc2nnc3cc(C)c4ccccc4n23)cc1', 4.34),
  ('COc1ccccc1OCCC(=O)OCC(=O)NCc1ccccc1', -0.432),
  ('COc1ccc(NC(=O)C2CCCN(S(=O)(=O)c3c(C)[nH]c(=O)[nH]c3=O)C2)c(OC)c1 (stereo not given)', 3.17),
  ('CCOc1ccc(CN2CCCN(C)CC2)cc1', 1.05),
  ('O=C1C(F)N([S+](=O)([O-])c2ccc3c(c2)OCCO3)CCN1[S+](=O)([O-])c1c(F)cccc1F (stereo not given)', -0.431);

Value of activation reported for the compound CCCN(CCC)S(=O)(=O)c1ccc(C(=O)N2CC3CCC(CC3)C2)cc1 is 37.1

Value of activation reported for the compound CCOc1ccc(-c2cc(C)n3nc(C(=O)Nc4ccc(C)c(C)c4)cc3n2)cc1 is 0.877

* * *

tested-on: D(1A) dopamine receptor (Homo sapiens)
assay-protocol: Allosteric Agonists of the Human D1 Dopamine Receptor: qHTS; also: 0% is about no effect
condition-description: HEK293 T-REx D1 cells, calcium flux, agonist mode; at 2 µM; hits give high values
About 3,700 (1%) of roughly 360,000 compounds were called active. Many of the other results were omitted from the sample, so actives are more common in it than they were.
measured-attribute: activation

INSERT INTO measurements (compound, measured_attribute, measurement) VALUES
  ('COC(=O)c1ccc(Sc2ccc(F)cc2)c(N)c1', 'activation', '2.52% (inactive)'),
  ('CN(C)c1ccc(C(CNS(=O)(=O)c2cc(F)ccc2F)N2CCOCC2)cc1 (stereo not drawn)', 'activation', '5.52% (inactive)'),
  ('CCOC(=O)c1c(C)[nH]c(C)c1S(=O)(=O)NCC(=O)NCc1cccc(C)c1', 'activation', '6.99% (inactive)');

# evaluate next
Value of activation reported for the compound CCC(Oc1ccccc1)C(=O)NCc1cccnc1 (stereo not drawn) is 1.93% (inactive)

* * *

Readings of activation for the listed compounds
tested-on: D(1A) dopamine receptor (Homo sapiens) (UniProt P21728)
Sequence (P21728 whole entry, looked up): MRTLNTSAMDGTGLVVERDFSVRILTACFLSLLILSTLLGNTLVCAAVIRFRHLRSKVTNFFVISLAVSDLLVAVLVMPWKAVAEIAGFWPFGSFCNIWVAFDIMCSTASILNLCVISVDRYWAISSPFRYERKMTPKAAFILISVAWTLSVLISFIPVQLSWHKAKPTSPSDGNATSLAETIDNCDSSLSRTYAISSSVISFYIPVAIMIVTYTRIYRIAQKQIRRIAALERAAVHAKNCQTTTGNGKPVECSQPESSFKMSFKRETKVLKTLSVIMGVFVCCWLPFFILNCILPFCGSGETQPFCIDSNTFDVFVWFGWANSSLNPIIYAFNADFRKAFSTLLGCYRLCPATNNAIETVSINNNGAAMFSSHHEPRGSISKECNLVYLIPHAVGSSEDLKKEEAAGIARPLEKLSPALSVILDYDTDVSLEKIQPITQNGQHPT
assay-protocol: Allosteric Agonists of the Human D1 Dopamine Receptor: qHTS; also: 0% is about no effect
condition-description: HEK293 T-REx D1 cells, calcium flux, agonist mode; at 2 µM; hits give high values
Among all 360,000 compounds or so, about 3,700 (1%) were called active. The sample holds actives, similar compounds and a random draw of the others, so the mix is not that of the screen.
Output spec: scalar in %, unitless text.

Known results for compounds:
INSERT INTO results (compound, measured_attribute, measurement) VALUES
  ('CCOc1ccc(NC(=O)c2c(NC(=O)Cc3ccccc3)sc3c2CCC(C)C3)cc1 (stereo unspecified)', 'activation', -0.648),
  ('CC(NC(=O)Cn1cc(C(F)(F)F)cc(Cl)c1=O)c1ccccc1 (stereo unspecified)', 'activation', -0.532),
  ('COc1cc(OC)c(NC(=O)C2CCCN2C(=O)OCc2ccccc2)cc1Cl (stereo unspecified)', 'activation', -0.285);

Value of activation reported for the compound CC(NC(=S)Nc1ccc(S(N)(=O)=O)cc1)c1ccc2c(c1)OCO2 (stereo unspecified) is 3.07

Value of activation reported for the compound CSc1ccc(C2C(C(=O)Nc3ccccc3)=C(C)Nc3nc4ccccc4n32)cc1 (stereo unspecified) is -0.673

Value of activation reported for the compound COc1cc(CNC2CCCCC2)c(Br)cc1OC1CCCC1 is 10.2

Numbers sourced from PubChem BioAssay AID504660.
